target: hKOR (Homo sapiens, UniProt P41145); construct: expressed in transfected cells; host or cells: HEK 293T (ATCC CRL-11268), transient; assay: cAMP inhibition assay (GloSensor, HEK 293T), hKOR; assay type: cell-based; conditions: cAMP inhibition vs Tango, against U50,488H as control
Sequence (P41145 whole entry): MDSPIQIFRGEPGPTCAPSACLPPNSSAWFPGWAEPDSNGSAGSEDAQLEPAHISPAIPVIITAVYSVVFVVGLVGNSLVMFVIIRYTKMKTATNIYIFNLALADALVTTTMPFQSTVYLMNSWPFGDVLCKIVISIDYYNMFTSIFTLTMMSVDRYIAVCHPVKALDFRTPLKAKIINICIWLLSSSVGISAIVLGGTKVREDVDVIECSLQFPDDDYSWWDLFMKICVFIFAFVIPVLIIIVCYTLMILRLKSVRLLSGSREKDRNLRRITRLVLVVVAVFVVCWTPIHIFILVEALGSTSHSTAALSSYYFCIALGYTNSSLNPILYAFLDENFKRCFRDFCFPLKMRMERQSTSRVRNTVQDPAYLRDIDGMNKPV
MEASUREMENT_NAME: Bias factor toward G protein, hKOR
Hey, just send me the number, nothing else.

1) NCc1ccc(C(=O)N[C@@H]2CC[C@H]3[C@H]4Cc5ccc(O)c6c5[C@@]3(CCN4CC3CC3)[C@H]2O6)cc1 [MP1209]
0.6
2) O=C(N[C@@H]1CCC2C3Cc4ccc(O)c5c4C2(CCN3CC2CC2)C1O5)c1cccc(I)c1 (stereo partly shown) [MP1202]
0.6
3) NCc1cccc(C(=O)NC2CCC3C4Cc5ccc(O)c6c5C3(CCN4CC3CC3)C2O6)c1 (stereo not shown) [MP1207]
8

// switching to the query molecule
Q. Give the measured Bias factor toward G protein, hKOR for N=C(N)NCc1cccc(C(=O)N[C@@H]2CCC3C4Cc5ccc(O)c6c5[C@@]3(CCN4CC3CC3)C2O6)c1 (stereo partly shown) [MP1208]
A. 23

Hey, just so you know, these numbers are from patent US11613547B2.
